Reference for the values: PubChem BioAssay (NCI)

Property: TGI; scope: individual compounds
- Tested on: SR leukemia
- assayRemarks: NCI tumour cell line growth inhibition, 48 h

compound	TGI
CC1(C)OCC(/C=C\C(O)CC2(C)OCCO2)CO1 (stereo unspecified)	> 100 µM
Cc1n[nH]c(=O)c2c3c([nH]c12)-c1ccccc1C3	> 100 µM
CCOC(=O)/C(C(=O)c1ccc[nH]1)=C1/CCCN1C	> 100 µM
Cc1c(CCCl)c(Cl)n2c(nc3ccccc32)c1C#N	0.649 µM
O=C1OCOC2(CCCC2)C1c1ccccc1 (stereo unspecified)	> 100 µM
CC(C)=CC(=O)c1[nH]c2ccccc2c1CC(=O)NCCc1cnc[nH]1	> 100 µM
N#Cc1ccc2c(-c3ccnc(NC4CC4)n3)c(-c3ccc(F)cc3)nn2c1	> 25 µM
COc1ccc2c(c1O)[C@@]13CCCC=C1[C@@H](C2)N(C)CC3	81.5 µM
O=[N+]([O-])C(/C=C(\Cl)[N+](=O)[O-])=C(N1CCOCC1)N1CCOCC1	> 100 µM
C(/C=C(\Nc1ccccc1)c1ccc2ccccc2c1)=Nc1ccccc1	2.49 µM
CCOC(=O)c1cccc(N=NNc2cccc(C(=O)OCC)c2)c1	> 100 µM

====

- Test system: HCT-116 colon
- assayRemarks: NCI tumour cell line growth inhibition, 48 h
quantityName: TGI

compound	result
COc1ccc(/C=C\c2cc(OC)c(OC)c(OC)c2)cc1NC(=O)/C=C/c1cc(OC)c(OC)c(OC)c1	> 100 µM
COc1cc([C@H]2OC[C@@H]3C(c4cc(OC)c5c(c4)OCO5)OC[C@H]23)cc(OC)c1OC (some centres not stated)	> 100 µM
COC(=O)C(=O)C(C(=O)C(=O)Nc1cc(C)ccc1C)c1nc2ccccc2[nH]c1=O (configuration not stated)	> 100 µM
CC(=O)[CH-]C(=O)c1ccccc1.CC(=O)[CH-]C(=O)c1ccccc1.Cl.[O-]CCc1ccccn1.[O-]CCc1ccccn1.[Ti+4]	55.6 µM
NC1=Nc2ncccc2C(=O)NN1	> 10 µM
O=C(CC1(O)C(=O)Nc2ccc(Cl)cc21)c1ccc(C(=O)NCC2CCC3(CC2)OOC2(CCCCC2)OO3)cc1 (configuration not stated)	12.3 µM
COc1ccc2c(Cl)cc(NC(=S)Nc3ccccc3)nc2c1	49.1 µM
CC[C@H](C)[C@H](NC(=O)CN(C)C)C(=O)N(C)[C@H](C[C@@H](OC(C)=O)c1nc(C(=O)NC23C4C5C2C2C3C4C52C(=O)OC)cs1)C(C)C (some centres not stated)	> 33.2 µM
O=C1c2ccccc2CC12Cc1ccc3c(c1C2=O)CCCC3 (configuration not stated)	> 100 µM
O=C1c2ccc3c4c(ccc(c24)C(=O)N1CCCCO)C(=O)N(CCCCO)C3=O	6.16 µM
CCCCCCNC(=O)CCN(C(=O)O)S(=O)(=O)c1ccc(NC(=O)c2ccccc2)cc1	> 59.5 µM
Cc1nc2ccccc2c(=O)n1/N=C(\N=Nc1cc(Cl)ccc1Cl)c1ccc(N(C)C)cc1	> 100 µM

====

Readings of TGI for the listed compounds
- Tested on: ACHN renal
- assayRemarks: NCI tumour cell line growth inhibition, 48 h

compound	TGI
COc1ccc(N2C(=O)[C@@H]3[C@@H]4CC(C)CC[C@@H]4c4c([nH]c5ccccc45)[C@@H]3C2=O)cc1 (stereo partly drawn)	26.9 µM
COc1ccc2c(Cl)cc(NC(=S)Nc3ccccc3)nc2c1	> 100 µM
N#Cc1cnn(C(=O)c2nn(-c3ccc(Cl)cc3)cc2O)c1N	12.5 µM
CCc1nnc2sc(-c3ccc(-c4ccccc4[N+](=O)[O-])o3)nn12	> 100 µM
C(/C=C(\Nc1ccccc1)c1ccc2ccccc2c1)=Nc1ccccc1	11.5 µM
Cc1cc2nc3c(N)nn(CCCN(C)C)c3nc2cc1C	> 100 µM
Cc1ccc(C)c(N2CCN(c3ccncc3N)CC2)c1	> 100 µM
O=[N+]([O-])c1ccc(CSC2=C(c3ccc(Cl)cc3)S/C(=C3\SC(SCc4ccc([N+](=O)[O-])cc4)=C(c4ccc(Cl)cc4)S3)S2)cc1	> 100 µM
Cc1ccc2c(c1)CC1(Cc3cc(C)ccc3C1=O)C2=O	> 100 µM
COC1=CC(=O)[C@@]2(C)C(C)[C@H](c3ccccc3)[C@H]2C1=O (stereo partly drawn)	> 100 µM
CC1=Nc2ccccc2S/C1=C1/C=NC(=NC#N)N=C1C(=O)Nc1cccc(Cl)c1	> 100 µM
O=C(NOCCO)c1ccc2cncn2c1Nc1ccc(I)cc1F	> 100 µM
O=C(Cn1c(=O)oc2ccccc21)N(c1ccccc1)c1ccccc1	> 100 µM

====

- Test system: LOX IMVI melanoma
- assayRemarks: NCI tumour cell line growth inhibition, 48 h
Let's look at some compounds and their measured TGI.

compound	assayedTarget	valueOperator	TGI / µM
C=C(CN1CCN(c2cc(C(F)(F)F)cc(C(F)(F)F)c2)CC1)c1ccc(C(=O)Nc2ccccc2N)cc1	LOX IMVI melanoma	>	100
CCC(CCCC[C@H]1CC[C@@H]2CC(=O)C[C@H]12)OC (stereo partly specified)	LOX IMVI melanoma	>	100
Cc1c(CCCl)c(Cl)n2c(nc3ccccc32)c1C#N	LOX IMVI melanoma	=	0.878
N#Cc1cnn(C(=O)c2nn(-c3ccc(Cl)cc3)cc2O)c1N	LOX IMVI melanoma	=	12
O=C(CC(C(=O)c1ccsc1)c1cccs1)c1cccs1 (stereo unspecified)	LOX IMVI melanoma	>	100
CCOC(=O)c1cccc(N=NNc2cccc(C(=O)OCC)c2)c1	LOX IMVI melanoma	>	100
CO[C@H]1C[C@H](O[C@H]2CC[C@@]3(C)[C@H](CC[C@@H]4[C@@H]3CC[C@]3(C)[C@@H](C5=CC(=O)OC5)CC[C@]43O)C2)O[C@H](C)[C@H]1O	LOX IMVI melanoma	=	0.0159
CCOC(=O)c1c(CN2CCCCC2)nc2ccc(Cl)cc2c1-c1ccccc1	LOX IMVI melanoma	=	44.2
COc1cc(OC)c(/C=C/S(=O)(=O)Cc2ccc(OC)c(N)n2)c(OC)c1	LOX IMVI melanoma	>	100
CCCCCCCCCC(=O)Oc1ccc(/C(=C(/C)c2ccccc2)c2ccc(OCCN3CCCC3)cc2)cc1	LOX IMVI melanoma	=	14.8
COc1cccc(/C=C\C(=O)c2ccccc2)c1	LOX IMVI melanoma	=	7.38
COc1ccc(/C=N/n2c(-c3ccccc3)n[nH]c2=O)c(OC)c1	LOX IMVI melanoma	>	100
CCOC(=O)C(=O)CC(=O)C(Br)C(Br)c1ccc(Cl)cc1 (stereo unspecified)	LOX IMVI melanoma	=	78.1
CCOC(=O)/C(C(=O)c1ccc[nH]1)=C1/CCCN1C	LOX IMVI melanoma	>	100
C=CCSC1=N/C(=C\c2ccc(C)cc2)C(=O)N1CC=C	LOX IMVI melanoma	=	82.3
COC(=O)c1sc2c(c1C(=O)OC)C(=Nc1ccc(OC)cc1)SC2=Nc1ccc(OC)cc1	LOX IMVI melanoma	=	0.449
Oc1ccccc1/C=N\NC(=S)Nc1ccc(F)cc1	LOX IMVI melanoma	>	79.7
O=C(Cn1c(=O)oc2ccccc21)N(c1ccccc1)c1ccccc1	LOX IMVI melanoma	>	100
COc1cc(F)c(F)c(Nc2ccc(I)cc2F)c1NS(=O)(=O)C1(CC(O)CO)CC1 (stereo unspecified)	LOX IMVI melanoma	=	17.6
COC1=CC(=O)[C@@]2(C)C(C)[C@H](c3ccccc3)[C@H]2C1=O (stereo partly specified)	LOX IMVI melanoma	>	100
O=C1N[C@@H]([C@H]2CC[C@H](Cl)CN2)C(=O)N[C@H]1[C@H]1CC[C@H](Cl)CN1	LOX IMVI melanoma	=	2.6

====

- Test system: OVCAR-5 ovarian
- assayRemarks: NCI tumour cell line growth inhibition, 48 h
Reported TGI values follow for various molecules
quantityName: TGI

molecule	assayedTarget	quantityName	result
CC[C@H](C)[C@H](NC(=O)CN(C)C)C(=O)N(C)[C@H](C[C@@H](OC(C)=O)c1nc(C(=O)NC23C4C5C2C2C3C4C52C(=O)OC)cs1)C(C)C (some centres undefined)	OVCAR-5 ovarian	TGI	> 33.2 µM
CN1N=C(c2ccncc2)OC1c1ccc(C(F)(F)F)cc1 (centres undefined)	OVCAR-5 ovarian	TGI	> 100 µM
COc1ccc2cc(CNCCCCCCNC(=O)Nc3cccc4ccccc34)ccc2c1	OVCAR-5 ovarian	TGI	> 100 µM
COc1cc(OC)c(/C=C/S(=O)(=O)Cc2ccc(OC)c(N)n2)c(OC)c1	OVCAR-5 ovarian	TGI	> 100 µM

====

Reported TGI values follow for various compounds
- System: K-562 leukemia
- assayRemarks: NCI tumour cell line growth inhibition, 48 h

compound	TGI
C=CC[PH+](c1ccccc1)c1ccccc1.C=CC[PH+](c1ccccc1)c1ccccc1.[Pt+2].[S-]c1nc2ccccc2[nH]1.[S-]c1nc2ccccc2[nH]1	> 100 µM
CCn1c(=O)nc2n(-c3ccc(SC)cc3)c3ccccc3nc-2c1=O	> 100 µM
CC[C@H](C)[C@H](NC(=O)CN(C)C)C(=O)N(C)[C@H](C[C@@H](OC(C)=O)c1nc(C(=O)NC23C4C5C2C2C3C4C52C(=O)OC)cs1)C(C)C (stereo partly drawn)	> 33.2 µM
COc1cc(C2c3cc4c(cc3[C@@H](Nc3ccc(F)cc3)C3COC(=O)[C@H]23)OCO4)cc(OC)c1O (stereo partly drawn)	43 µM
CCCC(O)c1ccc2[nH]c3c(C)cc([N+](=O)[O-])c(C)c3c2c1 (stereo not drawn)	> 100 µM
O=C(CC(C(=O)c1ccsc1)c1cccs1)c1cccs1 (stereo not drawn)	> 100 µM
CCN(CC)C(=O)Cc1[nH][nH]c(=O)c1C(=O)N(CC)CC	> 100 µM
CSCSCC(CO)NC(=O)/C=C/c1c(C)[nH]c(=O)[nH]c1=O (stereo not drawn)	> 100 µM
